- Test Method Notes: qHTS Assay for Foot and Mouth Disease Virus Antivirals: Primary Screen against the MLPCN compound library; also: nearly all actives have a fitted effect of over 55% in size; also: potency is read from the fitted curve at half-maximal effect
- Condition Context: FMDV antiviral cell-based qHTS; series mostly up to 57.9 µM
The campaign covered roughly 410,000 compounds. About 2,000 (0.49%) were called active. Roughly 8% stayed inconclusive and do not appear here. The sample holds actives, similar compounds and a random draw of the others, so the mix is not that of the screen.
Property Label: Potency

Worked examples follow.
COc1ccc(C)cc1NC(=O)CN(C)S(=O)(=O)c1cc(C)ccc1OC	inactive
O=S(=O)(N/N=C\c1cccc(F)c1)c1ccccc1	inactive
N#Cc1c(/N=C/c2cccs2)sc2c1CCCCC2	25.1 µM (active)
Fc1cccc(/C=N/Nc2ccc3ccccc3n2)c1	12.6 µM (active)
COc1cc2[nH]c(=S)nc(NC3CCCCCC3)c2cc1OC	inactive

Shifting focus to the molecule that follows.
Problem: Entry `CCOc1ccc(S(=O)(=O)N2CCC(n3c(C)nc4cccnc43)CC2)cc1` : reported Potency = ?
Solution: inactive

----------
- Test Method Notes: qHTS Assay for Foot and Mouth Disease Virus Antivirals: Primary Screen against the MLPCN compound library; also: nearly all actives have a fitted effect of over 55% in size
- Condition Context: FMDV antiviral cell-based qHTS; series mostly up to 57.9 µM
Screen size: about 410,000 compounds; about 2,000 (0.49%) were called active. Inconclusive results (about 8%) are left out. Calls follow the shape of the full dose curve; tested in HEK293 reporter line. Only a selection was taken, and actives are over-represented in it overall.
Output constraint: value belongs to active, inactive

Problem: Entry `CN(c1ccccc1)S(=O)(=O)c1ccc(Cl)c(C(=O)Nc2nc3ccccc3[nH]2)c1` : call = ?
Solution: inactive

Problem: Entry `NC(=O)c1ccc(N2CCN(c3ccc(O)cc3)CC2)c([N+](=O)[O-])c1` : call = ?
Solution: inactive

Problem: Entry `Cc1ccccc1CS(=O)(=O)c1cn(CC(=O)N2CCC(C)CC2)c2ccccc12` : call = ?
Solution: inactive

Problem: Entry `CC(=O)Nc1ccc(S(=O)(=O)Nc2nc3ccc(C)cc3s2)cc1` : call = ?
Solution: inactive

Problem: Entry `CC(=O)c1ccc(NC(=O)c2cc(S(=O)(=O)N3CCOCC3)ccc2C)cc1` : call = ?
Solution: inactive

Problem: Entry `Cc1ccc2nc(-c3ccc(NC(=O)CCN4C(=O)c5ccccc5C4=O)cc3)sc2c1` : call = ?
Solution: active

Problem: Entry `Cc1noc(C)c1CSc1nnc(-c2cc(Cl)ccc2Cl)n1N` : call = ?
Solution: inactive

Problem: Entry Cc1nn2c3c(cnc2c1-c1ccc(F)cc1)C(=O)CC(c1ccccc1)C3 (stereo unspecified) : call = ?
Solution: inactive

Problem: Entry `COc1cccc(-c2cc(C(=O)NC3CC3)c3ccccc3n2)c1` : call = ?
Solution: inactive

Problem: Entry `O=C(COc1ccc(F)cc1)Nc1ccc2nc(SCC(=O)N3CCOCC3)sc2c1` : call = ?
Solution: active

Problem: Entry COc1ccc(Nc2ccc(N3C(=O)CC(C)C3=O)cc2[N+](=O)[O-])cn1 (stereo unspecified) : call = ?
Solution: inactive

Problem: Entry `CC(C)Oc1ccc(C(=O)Nc2ccc3oc(-c4ccncc4)nc3c2)cc1` : call = ?
Solution: inactive

Problem: Entry `COc1ccc(C(=O)Nc2ccc(C)c(S(=O)(=O)N3CCOCC3)c2)cc1S(=O)(=O)N1CCCC1` : call = ?
Solution: inactive

Problem: Entry `Cc1nc2cc(C(F)(F)F)ccc2n1C1CCN(Cc2nnnn2Cc2cccs2)CC1` : call = ?
Solution: inactive

Problem: Entry `Cc1ccc2nc(-c3ccc(NC(=O)COC(=O)c4ccco4)cc3)sc2c1` : call = ?
Solution: active

Problem: Entry `O=C(COC(=O)c1ccco1)Nc1ccc2[nH]c(=O)[nH]c2c1` : call = ?
Solution: inactive

Problem: Entry `COc1cc(OC)cc(C(=O)N[C@H](C(=O)Nc2nc3ccccc3[nH]2)C(C)C)c1` : call = ?
Solution: inactive

Problem: Entry `Cc1ccn2c(/C=N/OCc3cccc(F)c3)c(-c3ccc(Cl)cc3)nc2c1` : call = ?
Solution: inactive

Problem: Entry `COc1ccccc1N1CCN(Cc2cc(=O)oc3cc(C)ccc23)CC1` : call = ?
Solution: inactive

Problem: Entry `CN(C)S(=O)(=O)N1CCc2ccc(NC(=O)c3ccc(C(F)(F)F)cc3)cc2C1` : call = ?
Solution: inactive

Problem: Entry `COc1cccc(-c2cn3nc4c(nc3n2)CCCC4)c1` : call = ?
Solution: active

Problem: Entry Cc1oc(-c2ccc(Cl)cc2)nc1CN1CCCC(C(=O)NCCCN2CCCC2=O)C1 (stereo unspecified) : call = ?
Solution: active

Problem: Entry `CCOC(=O)c1cc(-c2ccccc2)sc1NC(=O)CCN1C(=O)c2ccccc2C1=O` : call = ?
Solution: inactive

Problem: Entry `Cc1ccc2nc(-c3ccc(NC(=O)CCS(=O)(=O)c4ccccc4)cc3)sc2c1` : call = ?
Solution: active

Problem: Entry Cc1cccc(C)c1-n1nnnc1C(c1ccnc2ccccc12)N(CCN(C)C)Cc1ccccc1 (stereo unspecified) : call = ?
Solution: inactive

Problem: Entry `COc1cccc(Nc2c3c(nc4c(-c5ccccc5)c(C)nn24)CCC3)c1` : call = ?
Solution: inactive

Problem: Entry `O=C(CCCCCN1C(=O)c2ccccc2C1=O)Nc1cccc(O)c1` : call = ?
Solution: inactive

Problem: Entry `COc1ccc(/C=C/C(=O)Nc2ccccc2)cc1S(=O)(=O)N1CCOCC1` : call = ?
Solution: active

Problem: Entry `COC(=O)c1ccc(CSc2ccc3nnc(-c4ccc(F)cc4)n3n2)o1` : call = ?
Solution: inactive

Problem: Entry `Cc1ccc(-c2cc(-c3ccc(F)cc3)nc(N)c2C#N)o1` : call = ?
Solution: inactive

Problem: Entry `C[C@H]1CN([C@@H](C)CO)C(=O)c2cc(NC(=O)C3CCCCC3)ccc2O[C@H]1CN(C)Cc1ccc(-c2ccccc2)cc1` : call = ?
Solution: inactive

Problem: Entry `CCOC(=O)c1cn[nH]c1NC(=S)Nc1ccc(OC)cc1` : call = ?
Solution: active

Problem: Entry `CC(=O)c1ccc(NC(=O)c2noc3c2CCC3)cc1` : call = ?
Solution: active

Problem: Entry `c1csc(Cn2nnnc2CN2CCN(c3nc4ccccc4s3)CC2)c1` : call = ?
Solution: active

Problem: Entry `COc1ccc(C)cc1NC(=O)/C=C/c1ccc(OC)c(S(=O)(=O)N2CCOCC2)c1` : call = ?
Solution: inactive

Problem: Entry CC1CC(=O)N(c2ccc(NCCc3ccc(O)cc3)c([N+](=O)[O-])c2)C1=O (stereo unspecified) : call = ?
Solution: active

Problem: Entry `CCCCn1c(=O)[nH]c(=O)c2c1nc(CN1C(=O)c3ccccc3S1(=O)=O)n2CCC` : call = ?
Solution: inactive

Problem: Entry `Cc1nc2c(-c3ccc(F)cc3)c(C)nn2c(C)c1CCC(=O)Nc1ccccc1` : call = ?
Solution: inactive

Problem: Entry `Cc1ccc(-c2nc3cc(NC(=O)C(C)C)ccc3o2)cc1C` : call = ?
Solution: active

Problem: Entry CCOC(=O)c1cc(C)n(CC2CCC(C(=O)Nc3ccc(OC)cc3)CC2)c1C (stereo unspecified) : call = ?
Solution: inactive

Problem: Entry `Cc1ccc(C(=O)Nc2cc(-c3nc4cc(Cl)ccc4o3)ccc2C)c(C)c1` : call = ?
Solution: inactive

----------
- Test Method Notes: qHTS Assay for Foot and Mouth Disease Virus Antivirals: Primary Screen against the MLPCN compound library; also: nearly all actives have a fitted effect of over 55% in size
- Condition Context: FMDV antiviral cell-based qHTS; series mostly up to 57.9 µM
Hit rate of the full screen: of about 410,000 compounds, about 2,000 (0.49%) were called active. Not shown: some 8% with an inconclusive outcome. The call rests on the fitted dose curve; tested in HEK293 reporter line. The sample holds actives, similar compounds and a random draw of the others, so the mix is not that of the screen.
Output constraint: value belongs to active, inactive

Problem: Entry `O=C(/C=C/Nc1ccc(F)cc1F)c1ccco1` : call = ?
Solution: active

Problem: Entry `COc1cccc2[nH]c3c(N4CCc5ccccc5C4)ncnc3c12` : call = ?
Solution: inactive

Problem: Entry `CN1/C(=C\C(=O)c2ccco2)C(C)(C)c2ccccc21` : call = ?
Solution: inactive

Problem: Entry `Cn1c(-c2ccccc2)cc2onc(-c3ccccc3)c2c1=O` : call = ?
Solution: active

Problem: Entry `COC(=O)C1=C(C)N(c2cccc3ccccc23)C(=O)C1` : call = ?
Solution: inactive

Problem: Entry `CCOc1ccc2nc(NS(=O)(=O)c3ccc(NC(C)=O)cc3)sc2c1` : call = ?
Solution: inactive

Problem: Entry `C=CCn1c(SCc2nc3c(c(=O)[nH]c(=O)n3CCCC)n2CCC)nnc1-c1ccccc1` : call = ?
Solution: inactive

Problem: Entry `CCN(CC)S(=O)(=O)c1cc(-c2nnc(Nc3ccc(OC)c(C(N)=O)c3)c3ccccc23)ccc1C` : call = ?
Solution: inactive

Problem: Entry `CCOc1ccc2nc(NC(=O)c3ccccn3)sc2c1` : call = ?
Solution: active

Problem: Entry `CSc1ccc(NC(=O)N2CC=C(n3c(=O)[nH]c4ccccc43)CC2)cc1` : call = ?
Solution: inactive

Problem: Entry `COC(=O)c1ccc2nc(-c3ccc(C#N)cc3)c(Cc3ccsc3)n2c1` : call = ?
Solution: inactive

Problem: Entry `CN1C(=O)N(CC(=O)Nc2cccc(S(=O)(=O)N(C)c3ccccc3)c2)C(=O)C12CCCCC2` : call = ?
Solution: inactive

Problem: Entry Cn1c(=O)[nH]c(=O)c2c1nc(N1CCCCC1)n2CC(O)COc1ccc([N+](=O)[O-])cc1 (stereo not drawn) : call = ?
Solution: active

Problem: Entry `CCN(CC)CCNC(=O)c1nn(-c2ccc(Cl)cc2)c2c1CCc1cc(OC)ccc1-2` : call = ?
Solution: inactive

Problem: Entry `O=C(CNc1ccc(F)cc1F)NC(=O)NCc1ccco1` : call = ?
Solution: inactive

Problem: Entry `CN(C)S(=O)(=O)c1ccc(C(=O)N2CCC(c3nc4ccccc4o3)CC2)cc1` : call = ?
Solution: inactive

Problem: Entry `Cc1ccc(C(=O)Nc2ccccc2C(=O)O)cc1S(=O)(=O)Nc1ccccc1` : call = ?
Solution: inactive

Problem: Entry `CCOc1ccc(/C=C2\CCc3ccccc3C2=O)cc1` : call = ?
Solution: active

Problem: Entry `Cc1ccccc1-n1c(SCc2c(C)noc2C)nnc1-c1c[nH]c2ccccc12` : call = ?
Solution: inactive

Problem: Entry `Cc1c(NC(=O)c2ccc(-c3ccccc3)cc2)cccc1C(=O)O` : call = ?
Solution: active

Problem: Entry `Cc1cccc(C(=O)O)c1NC(=O)c1ccc(F)cc1` : call = ?
Solution: inactive

Problem: Entry `CCCCCCCCCCC[N+](C)(C)CC/C=C1/c2ccccc2Sc2ccc(Cl)cc21` : call = ?
Solution: inactive

Problem: Entry `Cc1cc(=S)nc(-c2ccccn2)[nH]1` : call = ?
Solution: inactive

Problem: Entry `CCOC(=O)c1sc2nc(CC(=O)OC)nc(N3CCN(c4ccc(OC)cc4)CC3)c2c1C` : call = ?
Solution: inactive

Problem: Entry `O=C(CSc1nc(=O)n(CCN2CCOCC2)c2c1CCC2)Nc1ccc(OC(F)(F)F)cc1` : call = ?
Solution: inactive

Problem: Entry CC1C/C(=N/Nc2ccc([N+](=O)[O-])cc2[N+](=O)[O-])CC(C)(C)C1 (stereo not drawn) : call = ?
Solution: inactive

Problem: Entry `COc1cc(CNc2ncnc3c2ncn3[C@H]2CN(Cc3ccc(F)cc3)C[C@@H](CO)O2)cc(OC)c1OC` : call = ?
Solution: inactive

Problem: Entry `O=C(Nc1ccc(F)cc1F)c1ccc2c(c1)[nH]c(=O)n2Cc1ccc(F)cc1` : call = ?
Solution: inactive

Problem: Entry `Cc1onc(-c2ccccc2)c1C(=O)n1nnc2ccccc21` : call = ?
Solution: inactive

Problem: Entry Cc1cccc(OCCCCn2nnc3sc4c(c3c2=O)CCC(C)C4)c1 (stereo not drawn) : call = ?
Solution: inactive

Problem: Entry `COc1cc(NS(=O)(=O)c2ccc(C)cc2C)cc(OC)c1OC` : call = ?
Solution: active

Problem: Entry `Cc1nn2cc(-c3ccc(OC(C)C)cc3)nc2s1` : call = ?
Solution: active

Problem: Entry `COc1ccc(CCNC(=O)CSc2nnc(-c3ccccc3)c3ccccc23)cc1OC` : call = ?
Solution: inactive

Problem: Entry `CCC(=O)N1CCc2cc(Br)cc(S(=O)(=O)CCC(=O)NCc3ccccc3OC)c21` : call = ?
Solution: inactive

Problem: Entry `CCn1c(=O)c(C(=O)NCc2ccc(OC)c(OC)c2)c(O)c2ccccc21` : call = ?
Solution: inactive

Problem: Entry `O=C(Nc1ccc2nc(SCCOc3ccccc3)sc2c1)c1cccs1` : call = ?
Solution: inactive

Problem: Entry `CCn1c(N2CCC(C)CC2)nc2c1c(=O)n(C)c(=O)n2C` : call = ?
Solution: inactive

Problem: Entry `COc1ccc(C)cc1S(=O)(=O)Nc1ccccc1` : call = ?
Solution: inactive

Problem: Entry `c1ccc(C2=Nn3c(nnc3-c3ccccn3)SC2)cc1` : call = ?
Solution: inactive

Problem: Entry `COc1ccc(CNC(=O)Cn2c(=O)nc(-c3ccccc3)c3ccccc32)cc1OC` : call = ?
Solution: active

Problem: Entry `N#CC(=C=[N-])c1nc2ccccc2nc1-[n+]1ccccc1` : call = ?
Solution: inactive

Problem: Entry `COC(=O)c1nnn(-c2nonc2N)c1CSc1nc2ccccc2s1` : call = ?
Solution: inactive

Problem: Entry `O=C(NCc1ccc(F)cc1)c1cc(Sc2ccc(F)cc2F)nc2ccccc12` : call = ?
Solution: inactive
